- test summary: total protein half-life in vivo (active degradation + dilution); higher = more stable protein
- test conditions: wild type E. coli NCM3722; growth: N-lim chemostat; doubling time 12 h
outcome measure: total protein half-life in vivo (h)
Numeric answer only, unit h assumed.

Asked: Dear colleague, I am looking for the recorded total protein half-life in vivo of the following sequence: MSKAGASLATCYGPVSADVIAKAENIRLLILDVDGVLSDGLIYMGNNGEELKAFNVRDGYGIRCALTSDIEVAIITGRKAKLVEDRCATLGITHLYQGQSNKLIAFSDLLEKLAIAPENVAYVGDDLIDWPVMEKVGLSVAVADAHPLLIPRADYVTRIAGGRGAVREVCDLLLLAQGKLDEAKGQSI [P0ABZ4]
Given back: 7.52

Asked: Need total protein half-life in vivo, item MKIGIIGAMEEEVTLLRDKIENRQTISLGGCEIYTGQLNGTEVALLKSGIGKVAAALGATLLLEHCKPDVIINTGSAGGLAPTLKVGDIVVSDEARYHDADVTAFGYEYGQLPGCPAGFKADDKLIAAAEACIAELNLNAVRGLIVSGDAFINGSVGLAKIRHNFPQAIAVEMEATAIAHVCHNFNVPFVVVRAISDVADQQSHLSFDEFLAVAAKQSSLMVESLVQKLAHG [P0AF12]
Given back: 8.24

Asked: Which total protein half-life in vivo value belongs to `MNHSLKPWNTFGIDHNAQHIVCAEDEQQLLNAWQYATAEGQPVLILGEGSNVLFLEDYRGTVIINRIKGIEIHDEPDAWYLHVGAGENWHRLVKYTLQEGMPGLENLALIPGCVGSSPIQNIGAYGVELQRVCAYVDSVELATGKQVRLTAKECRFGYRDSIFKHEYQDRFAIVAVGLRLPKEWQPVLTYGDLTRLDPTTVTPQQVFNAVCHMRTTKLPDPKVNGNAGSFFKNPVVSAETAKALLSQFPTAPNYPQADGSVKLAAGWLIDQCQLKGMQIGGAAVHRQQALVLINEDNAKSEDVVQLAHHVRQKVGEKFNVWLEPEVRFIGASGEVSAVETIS` ?
Given back: 5.41

Asked: GET /values?readout=total protein half-life in vivo&item= `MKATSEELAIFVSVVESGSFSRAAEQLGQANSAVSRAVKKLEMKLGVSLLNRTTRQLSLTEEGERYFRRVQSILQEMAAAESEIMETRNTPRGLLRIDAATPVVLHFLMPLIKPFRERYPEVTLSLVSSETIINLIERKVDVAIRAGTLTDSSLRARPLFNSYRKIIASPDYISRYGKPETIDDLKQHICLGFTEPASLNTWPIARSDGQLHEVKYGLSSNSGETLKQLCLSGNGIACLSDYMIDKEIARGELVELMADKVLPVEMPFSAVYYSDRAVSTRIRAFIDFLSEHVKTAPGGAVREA`
Given back: 11.3

Asked: Query (sequence): `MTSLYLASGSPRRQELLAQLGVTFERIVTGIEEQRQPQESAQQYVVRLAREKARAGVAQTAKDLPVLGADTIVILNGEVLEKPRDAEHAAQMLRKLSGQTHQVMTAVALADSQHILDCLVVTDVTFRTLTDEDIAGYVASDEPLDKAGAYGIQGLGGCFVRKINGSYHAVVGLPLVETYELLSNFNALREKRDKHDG` ; field requested: total protein half-life in vivo
Given back: 4.52

Asked: For the sequence shown here, `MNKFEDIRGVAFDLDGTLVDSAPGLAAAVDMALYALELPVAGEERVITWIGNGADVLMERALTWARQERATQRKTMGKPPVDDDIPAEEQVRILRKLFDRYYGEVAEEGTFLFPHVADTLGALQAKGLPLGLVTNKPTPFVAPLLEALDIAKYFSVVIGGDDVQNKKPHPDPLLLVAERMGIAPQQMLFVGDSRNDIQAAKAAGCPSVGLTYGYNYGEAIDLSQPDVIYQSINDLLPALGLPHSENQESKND` , give the reported total protein half-life in vivo.
Given back: 4.01
